B1: E3 ubiquitin-protein ligase NEDD4, residues 836 to 881; numbered along this chain, P46934 (parent)
chain: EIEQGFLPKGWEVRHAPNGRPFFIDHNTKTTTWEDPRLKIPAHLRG

Variants of: B1
Experiment: abundance fitness (aPCA) (normalised: wild type 0, dead -1); higher = more abundant; growth selection in yeast, the domain comes from the species named
Conditions: Homo sapiens
MET means recorded abundance fitness is -0.7 or above; NOT MET means it is below -0.7.

{"columns": ["residue-change", "category"],
 "data": [
  ["K29A", "MET"],
  ["E34V", "MET"],
  ["T28M", "MET"],
  ["R45E", "MET"],
  ["L44S", "MET"],
  ["G46D", "MET"],
  ["E34P", "NOT MET"],
  ["T31H", "MET"],
  ["I40Y", "MET"],
  ["A42S", "MET"],
  ["D35E", "NOT MET"],
  ["R37P", "NOT MET"],
  ["D25I", "NOT MET"],
  ["L38N", "MET"],
  ["H43T", "MET"],
  ["F22Q", "MET"],
  ["R20P", "NOT MET"],
  ["G19D", "NOT MET"],
  ["D35W", "NOT MET"],
  ["A42Q", "MET"],
  ["D25S", "NOT MET"]
]}
